The following compounds are listed with their measured melting point values.

So for O=C(Nc1ccc(C2CCCCC2)cc1)NC1CCCC1 , the logged melting point turned out to be 197 to 199 °C

So for S=C(Nc1ccc(C2CCCCC2)cc1)NC1CCCC1 , the logged melting point turned out to be 146 to 152 °C

---

The following molecules are listed with their measured pIC50 values.
- Tested on: HDFn neonatal dermal fibroblast cell line
- assay notes: Antiproliferative activity (NCI procedure, sulforhodamine B), HDFn
- Format: cell-based, human
- measurement conditions: Homo sapiens, Fibroblast; Table 8; unit inferred, tested 781 nM to 100 μM, 48 h
# pIC50 = -log10(concentration in molar units)

Here is how some molecules turned out for pIC50.
molecule	pIC50
S=C(Nc1ccc(C2CCCCC2)cc1)NC1CC1 [Compound 93]	4.08
S=C(Nc1ccc(I)cc1)NC1CCCC1 [Compound 102]	4.73
S=C(Nc1ccc(C2CCCCC2)cc1)NC1CCCC1 [Compound 89]	4.84
CCNC(=S)Nc1cccc(C2CCCCC2)c1 [Compound 104]	4.89
S=C(Nc1cccc(C2CCCCC2)c1)NC1CC1 [Compound 105]	4.83

So for CC(C)(C)c1ccc(NC(=S)NC2CC2)cc1 [Compound 95] , the logged pIC50 turned out to be 4.22

---

- Test system: A549 adenocarcinoma alveolar epithelial cancer cells
- assay notes: Antiproliferative activity (NCI procedure, sulforhodamine B), A549
- Format: cell-based, human
- measurement conditions: Homo sapiens, A549; Table 8; unit inferred, tested 781 nM to 100 μM, 48 h
reported metric: IC50 (µM)
Give the quantity in µM, number only.

Here is how some compounds turned out for IC50.
chemical structure	IC50 / µM
CC(C)(C)c1ccc(NC(=S)NCC2CCC2)cc1	23.3
CCNC(=S)Nc1cccc(C2CCCCC2)c1	22.4
CCNC(=S)Nc1ccc(C(C)(C)C)cc1	71.1
CC(C)(C)c1cccc(NC(=S)NC2CC2)c1	70

Below: the item to evaluate.
So for CC(C)(C)c1cccc(NC(=S)NC2CCCC2)c1 , the logged IC50 turned out to be 19.4

---

The following compounds are listed with their measured IC50 values.
- Test system: HDFn neonatal dermal fibroblast cell line
- assay notes: Antiproliferative activity (NCI procedure, sulforhodamine B), HDFn
- Type: cell-based, human
- measurement conditions: Homo sapiens, Fibroblast; Table 8; unit inferred, tested 781 nM to 100 μM, 48 h
Give the quantity in µM, number only.

Here is how some compounds turned out for IC50.
chemical structure	IC50 [µM]
S=C(NCC1CCC1)Nc1cccc(I)c1	19.4
CCNC(=S)Nc1ccc(C(C)(C)C)cc1	94
S=C(Nc1cccc(I)c1)NC1CCCC1	16.4
S=C(NCC1CCC1)Nc1ccc(I)cc1	24.2
S=C(Nc1cccc(C2CCCCC2)c1)NC1CCCC1	3.8
S=C(NCC1CCC1)Nc1ccc(C2CCCCC2)cc1	15.7
CC(C)(C)c1cccc(NC(=S)NC2CCCC2)c1	16.3
CC(C)(C)c1ccc(NC(=S)NC2CCCC2)cc1	22.6
CC(C)(C)c1cccc(NC(=S)NCC2CCC2)c1	18.2

So for S=C(NCC1CCC1)Nc1cccc(C2CCCCC2)c1 , the logged IC50 turned out to be 4.9

---

- System: HT-29 colon adenocarcinoma cells
- assay notes: Antiproliferative activity (NCI procedure, sulforhodamine B), HT-29
- Type: cell-based, human
- measurement conditions: Homo sapiens, HT-29; Table 8; unit inferred, tested 781 nM to 100 μM, 48 h
reported metric: IC50 (µM)
Give the quantity in µM, number only.

compound	tgt	IC50 (µM)
S=C(Nc1cccc(I)c1)NC1CCCC1 [Compound 98]	HT-29 colon adenocarcinoma cells	23.4

So for CC(C)(C)c1cccc(NC(=S)NC2CCCC2)c1 [Compound 91] , the logged IC50 turned out to be 21

So for CCNC(=S)Nc1ccc(C(C)(C)C)cc1 [Compound 94] , the logged IC50 turned out to be 92

---

The following molecules are listed with their measured melting point values.

Here is how some molecules turned out for melting point.
chemical structure	melting point
CC(C)(C)c1ccc(NC(=O)NC2CCC2)cc1	189 to 190 °C
CC(C)(C)NC(=O)Nc1cccc(I)c1	189 to 193 °C
CC(C)NC(=O)Nc1cccc(C(C)(C)C)c1	146 to 149 °C
S=C(NCC1CCC1)Nc1ccc(C2CCCCC2)cc1	144 to 152 °C

So for O=C(NCC1CCCC1)Nc1ccc(C2CCCCC2)cc1 , the logged melting point turned out to be 142 to 144 °C

So for CCCNC(=O)Nc1cccc(C(C)(C)C)c1 , the logged melting point turned out to be 138 to 141 °C

So for S=C(NCC1CCC1)Nc1cccc(C2CCCCC2)c1 , the logged melting point turned out to be 102 to 110 °C

---

- System: HDFn neonatal dermal fibroblast cell line
- assay notes: Antiproliferative activity (NCI procedure, sulforhodamine B), HDFn
- Assay type: cell-based, human
- measurement conditions: Homo sapiens, Fibroblast; Table 5; unit inferred, tested 781 nM to 100 μM, 48 h
reported metric: IC50 (µM)
Give the quantity in µM, number only.

chemical structure	reading unit	IC50
CC(C)(C)NC(=O)Nc1cccc(C2CCCCC2)c1	µM	16.3
CC(C)NC(=O)Nc1cccc(C(C)(C)C)c1	µM	92.4

So for CC(C)(C)NC(=O)Nc1cccc(C(C)(C)C)c1 , the logged IC50 turned out to be 13.1

So for CCCNC(=O)Nc1ccc(C(C)(C)C)cc1 , the logged IC50 turned out to be 10.5

So for CC(C)NC(=O)Nc1ccc(C(C)(C)C)cc1 , the logged IC50 turned out to be 57.4

---

The following compounds are listed with their measured pIC50 values.
- Tested on: HT-29 colon adenocarcinoma cells
- assay notes: Antiproliferative activity (NCI procedure, sulforhodamine B), HT-29
- Assay type: cell-based, human
- measurement conditions: Homo sapiens, HT-29; Table 8; unit inferred, tested 781 nM to 100 μM, 48 h
- Method: The antiproliferative activity of compounds 3a-b, 4a-e, 5a-e and 6a-e was subsequently evaluated using the human HT-29 colon adenocarcinoma and the A549 adenocarcinoma alveolar epithelial cancer cell lines, the HaCaT spontaneously transformed aneuploid immortal keratinocyte cell line and the HDFn neonatal dermal fibroblast cell line (Table 2). Cell growth inhibition was assessed according to the NCI/NIH Developmental Therapeutics Program. […]
# pIC50 = -log10(concentration in molar units)

chemical structure	quantitative result
CC(C)(C)c1cccc(NC(=S)NC2CC2)c1	4.12
S=C(NCC1CCC1)Nc1ccc(I)cc1	4.57
S=C(NCC1CCC1)Nc1ccc(C2CCCCC2)cc1	4.69

So for CC(C)(C)c1cccc(NC(=S)NCC2CCC2)c1 , the logged pIC50 turned out to be 4.69

So for CC(C)(C)c1ccc(NC(=S)NCC2CCC2)cc1 , the logged pIC50 turned out to be 4.36

So for S=C(Nc1ccc(I)cc1)NC1CC1 , the logged pIC50 turned out to be 4.20

---

- Test system: HT-29 colon adenocarcinoma cells
- assay notes: Antiproliferative activity (NCI procedure, sulforhodamine B), HT-29
- Type: cell-based, human
- measurement conditions: Homo sapiens, HT-29; Table 7; unit inferred, tested 781 nM to 100 μM, 48 h
pIC50: −log10 of the molar value.
The following compounds are listed with their measured pIC50 values.

chemical structure	result
O=c1c(Nc2ccc(C3CCCCC3)cc2)c(NC2CC2)c1=O	< 4.00
CC(C)(C)c1cccc(Nc2c(NCC3CCC3)c(=O)c2=O)c1	4.83
O=c1c(NCC2CCC2)c(Nc2ccc(I)cc2)c1=O	< 4.00
CC(C)(C)c1ccc(Nc2c(NC3CCCC3)c(=O)c2=O)cc1	< 4.00
O=c1c(NCC2CCC2)c(Nc2cccc(C3CCCCC3)c2)c1=O	5.35
O=c1c(Nc2ccc(I)cc2)c(NC2CC2)c1=O	< 4.00

O=c1c(Nc2ccc(C3CCCCC3)cc2)c(NC2CCCC2)c1=O on HT-29 colon adenocarcinoma cells gives pIC50 = < 4.00

O=c1c(Nc2cccc(C3CCCCC3)c2)c(NC2CCCC2)c1=O on HT-29 colon adenocarcinoma cells gives pIC50 = 5.37

---

- Tested on: HT-29 colon adenocarcinoma cells
- assay notes: Antiproliferative activity (NCI procedure, sulforhodamine B), HT-29
- Type: cell-based, human
- measurement conditions: Homo sapiens, HT-29; Table 8; unit inferred, tested 781 nM to 100 μM, 48 h
reported metric: pIC50
# pIC50 = -log10(concentration in molar units)

Here is how some compounds turned out for pIC50.
chemical structure	pIC50
S=C(Nc1ccc(C2CCCCC2)cc1)NC1CCCC1	4.67
CCNC(=S)Nc1cccc(C2CCCCC2)c1	4.75
S=C(Nc1ccc(I)cc1)NC1CCCC1	4.60

So for S=C(Nc1cccc(C2CCCCC2)c1)NC1CCCC1 , the logged pIC50 turned out to be 5.24

So for S=C(NCC1CCC1)Nc1cccc(C2CCCCC2)c1 , the logged pIC50 turned out to be 4.88

So for CC(C)(C)c1ccc(NC(=S)NC2CC2)cc1 , the logged pIC50 turned out to be 4.19
